Biological target: androgen receptor (AR) (Homo sapiens, UniProt P10275)
Sequence (P10275 whole entry): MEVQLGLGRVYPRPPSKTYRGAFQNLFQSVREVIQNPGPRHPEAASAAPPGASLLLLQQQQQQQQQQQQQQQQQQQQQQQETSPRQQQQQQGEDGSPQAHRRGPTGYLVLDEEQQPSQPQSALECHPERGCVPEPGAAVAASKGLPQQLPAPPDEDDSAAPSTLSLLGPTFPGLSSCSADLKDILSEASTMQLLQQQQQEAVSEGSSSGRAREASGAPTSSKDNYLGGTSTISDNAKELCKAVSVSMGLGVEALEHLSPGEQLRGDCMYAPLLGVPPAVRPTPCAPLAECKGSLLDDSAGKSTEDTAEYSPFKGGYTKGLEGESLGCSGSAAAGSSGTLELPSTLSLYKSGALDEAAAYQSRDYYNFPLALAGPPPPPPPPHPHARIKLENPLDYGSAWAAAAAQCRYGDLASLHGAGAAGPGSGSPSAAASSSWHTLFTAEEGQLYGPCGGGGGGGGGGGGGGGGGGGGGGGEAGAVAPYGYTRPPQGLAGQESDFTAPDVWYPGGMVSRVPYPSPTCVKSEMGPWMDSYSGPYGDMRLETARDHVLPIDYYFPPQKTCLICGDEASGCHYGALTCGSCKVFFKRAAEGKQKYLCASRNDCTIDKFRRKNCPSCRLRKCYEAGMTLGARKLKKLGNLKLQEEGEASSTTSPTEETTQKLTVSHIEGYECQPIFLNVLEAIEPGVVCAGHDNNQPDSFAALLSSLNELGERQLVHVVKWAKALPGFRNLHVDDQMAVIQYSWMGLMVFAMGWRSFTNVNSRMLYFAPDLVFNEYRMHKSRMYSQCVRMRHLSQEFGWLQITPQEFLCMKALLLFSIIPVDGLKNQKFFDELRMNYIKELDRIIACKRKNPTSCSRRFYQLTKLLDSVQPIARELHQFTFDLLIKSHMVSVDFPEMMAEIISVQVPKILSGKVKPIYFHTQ
Experiment: Agonist activity at AR (unknown origin) expressed in human LNCaP cells incubated for 20 hrs by luciferase reporter gene assay relative to mifepristone
Assay type: cell-based
Conditions: human LNCaP cells expressing AR
Entries and their measured Emax at 20 h follow.

Smiles Entry: COC(C)(C)C#C[C@]1(O)CC[C@H]2[C@@H]3CCC4=CC(=O)CC[C@@H]4[C@H]3[C@@H](c3ccc(N(C)C)cc3)C[C@@]21C
Emax at 20 h, %: 10.6
//
Smiles Entry: CN(C)c1c(F)cc([C@H]2C[C@@]3(C)[C@@H](CC[C@@]3(O)C#CC(C)(C)C)[C@@H]3CCC4=CC(=O)CCC4=C32)cc1F
Emax at 20 h, %: 8.8
//
Smiles Entry: CC(C)N(C)c1ccc([C@H]2C[C@@]3(C)[C@@H](CC[C@@]3(O)C#CC(C)(C)C)[C@@H]3CCC4=CC(=O)CC[C@@H]4[C@H]32)cc1
Emax at 20 h, %: 11
//
Smiles Entry: CCc1ccc([C@H]2C[C@@]3(C)[C@@H](CC[C@@]3(O)C#CC(C)(C)C)[C@@H]3CCC4=CC(=O)CCC4=C32)cc1
Emax at 20 h, %: 20
//
Smiles Entry: Cc1ccc([C@H]2C[C@@]3(C)[C@@H](CC[C@@]3(O)C#CC(C)(C)C)[C@@H]3CCC4=CC(=O)CCC4=C32)cc1
Emax at 20 h, %: 16
//
Smiles Entry: CN(C)c1ccc([C@H]2C[C@@]3(C)[C@@H](CC[C@@]3(O)C#CC(C)(C)C)[C@@H]3CCC4=CC(=O)CCC4=C32)cc1
Emax at 20 h, %: 13.4
//
Smiles Entry: CC#C[C@]1(O)CC[C@H]2[C@@H]3CCC4=CC(=O)CCC4=C3[C@@H](c3ccc(C(C)C)cc3)C[C@@]21C
Emax at 20 h, %: 198
//
Smiles Entry: COc1ccc([C@H]2C[C@@]3(C)[C@@H](CC[C@@]3(O)C#CC(C)(C)C)[C@@H]3CCC4=CC(=O)CCC4=C32)cc1
Emax at 20 h, %: 9.8
//
Smiles Entry: CCC#C[C@]1(O)CC[C@H]2[C@@H]3CCC4=CC(=O)CCC4=C3[C@@H](c3ccc(N(C)C)cc3)C[C@@]21C
Emax at 20 h, %: 101
//
Smiles Entry: COc1cc([C@H]2C[C@@]3(C)[C@@H](CC[C@@]3(O)C#CC(C)(C)C)[C@@H]3CCC4=CC(=O)CCC4=C32)ccc1N(C)C
Emax at 20 h, %: 5.7
//
Smiles Entry: CN(C)c1cccc([C@H]2C[C@@]3(C)[C@@H](CC[C@@]3(O)C#CC(C)(C)C)[C@@H]3CCC4=CC(=O)CCC4=C32)c1
Emax at 20 h, %: 7.5
//
Smiles Entry: Cc1cc([C@H]2C[C@@]3(C)[C@@H](CC[C@@]3(O)C#CC(C)(C)C)[C@@H]3CCC4=CC(=O)CCC4=C32)ccc1N(C)C
Emax at 20 h, %: 17
